method notes: Cmax in Sprague-Dawley rat at 5 mg/kg, iv by LC-MS/MS analysis
Format: ADME, organism-based
study conditions: in vivo
quantity name: Cmax (ng/mL)
Respond with the bare value in ng/mL.

Req: # query: Cmax of entry Cc1ccccc1CN1C(=O)C2=C(CCN(Cc3ccccc3)C2)N2CCN=C12
Resp: 2770

* * *

method notes: Antiproliferative activity against rat H9c2 cells assessed as inhibition of cell growth measured after 72 hrs by CCK-8 method
Type: toxicity, cell-based
Listed here are compounds together with their documented IC50 at 72 h.
Output spec: scalar in µM, unitless text.

N#Cc1cccc(CN2CCC=C(C(=O)NCc3ccc(C(F)(F)F)cc3)C2)c1: 60.6

Now, please, on to the next compound.
Req: Sample CC(ONC(=O)c1cc(C(F)(F)F)cc(C(F)(F)F)c1)C(=O)Nc1ccc(Cl)cc1 (configuration not stated) — what was its IC50 at 72 h?
Resp: 35.5
